Protein target, amino acids: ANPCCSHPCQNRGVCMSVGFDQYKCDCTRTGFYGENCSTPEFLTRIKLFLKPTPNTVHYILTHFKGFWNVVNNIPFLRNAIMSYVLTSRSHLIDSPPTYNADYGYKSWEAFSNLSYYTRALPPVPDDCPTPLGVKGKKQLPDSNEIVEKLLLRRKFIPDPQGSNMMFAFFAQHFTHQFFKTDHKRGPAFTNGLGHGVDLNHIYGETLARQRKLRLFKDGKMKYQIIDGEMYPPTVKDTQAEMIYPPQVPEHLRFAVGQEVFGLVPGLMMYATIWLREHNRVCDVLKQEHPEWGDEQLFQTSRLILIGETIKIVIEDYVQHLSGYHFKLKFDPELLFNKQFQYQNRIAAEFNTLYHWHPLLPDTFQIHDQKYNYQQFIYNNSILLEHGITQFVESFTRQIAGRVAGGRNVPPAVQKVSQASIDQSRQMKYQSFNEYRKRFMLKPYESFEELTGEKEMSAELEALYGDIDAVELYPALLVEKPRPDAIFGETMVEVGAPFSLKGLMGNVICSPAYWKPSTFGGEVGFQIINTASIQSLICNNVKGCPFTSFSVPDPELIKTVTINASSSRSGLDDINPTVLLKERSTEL
pIC50: −log10 of the molar value.
VALUE_KIND: pIC50

COMPOUND: C=C[C@@](C)(/C=C/c1ccc(O)cc1)CCC=C(C)C [BAK, bakuchiol]
VALUE_KIND: pIC50
EXPERIMENTAL_VALUE: 4.89
